We begin with pIC50 values for Histone deacetylase 1 (Homo sapiens), as collected from the published literature.
pIC50: −log10 of the molar value.

Query Nc1ccc(-c2cccs2)cc1NC(=O)c1ccc(N2CCC(N3CCOCC3)CC2)cc1 yields pIC50 of > 6.00

Query Nc1ccccc1NC(=O)c1ccc2c(cnn2CC2CC2)c1 yields pIC50 of > 6.00

Query Cc1ccc(Cn2cc3cc(C(=O)Nc4ccccc4N)ccc3n2)c(C)n1 yields pIC50 of > 6.00

Query O=C(/C=C/c1ccccc1Oc1cccnc1)NO yields pIC50 of 5.00 to 6.00

Query Nc1ccc(-c2ccc(F)cc2)cc1NC(=O)c1nc(N2CCNCC2)cs1 yields pIC50 of 6.30 to 8.00

Query COCCN(CCOC)Cc1ccc(C(=O)Nc2cc(-c3cccs3)ccc2N)cc1 yields pIC50 of > 6.00

Query COCCn1cc2c(n1)CN(C(=O)Nc1nc(-c3ccc(F)cc3F)ccc1N)C2 yields pIC50 of 5.30 to 6.30

Query Nc1ccccc1NC(=O)c1ccc(N2CC[C@H](OC(=S)NCCN3CCOCC3)C2)cc1 yields pIC50 of ≥ 6.30

---

We begin with IC50 values for Histone deacetylase 1 (Homo sapiens, UniProt Q13547), as collected from the published literature.

Item CC(C)COC(=O)N[C@H]1CCN(c2ccc(C(=O)Nc3ccccc3N)cc2)C1 ; assay system Histone deacetylase 1 (Homo sapiens, UniProt Q13547); IC50 reported as ≤ 0.5 µM

Item CC1(C)C(=O)N(Cc2ccc(-c3nnc(C(F)F)o3)cn2)C(=O)c2ccc(C3=CCN(C4COC4)CC3)cc21 ; assay system Histone deacetylase 1 (Homo sapiens, UniProt Q13547); IC50 reported as > 10 µM

Item CCCN1CCN(c2ccc3c(c2)C(=O)N(Cc2ccc(-c4nnc(C(F)F)o4)cn2)C(=O)C3(C)C)CC1 ; assay system Histone deacetylase 1 (Homo sapiens, UniProt Q13547); IC50 reported as > 10 µM

Item O=C(NO)c1ccc2ccn(CCOc3ccccc3)c2c1 ; assay system Histone deacetylase 1 (Homo sapiens, UniProt Q13547); IC50 reported as > 10 µM

Item Nc1cc(F)ccc1NC(=O)c1ccc2c(cnn2CC2CC2)c1 ; assay system Histone deacetylase 1 (Homo sapiens, UniProt Q13547); IC50 reported as 1 to 5 µM

---

We begin with IC50 values for Histone deacetylase 1 (Homo sapiens, UniProt Q13547), as collected from the published literature.

Query Nc1ccc(-c2ccccc2)cc1NC(=O)c1ncc(N2CCNCC2)cn1 yields IC50 of 10 to 20 nM

Query Nc1ccc(-c2cccs2)cc1NC(=O)c1ccc(CN2CCCCC2)cc1 yields IC50 of < 1000 nM

Query Nc1ccc(-c2ccco2)cc1NC(=O)c1cnc(N2CCNCC2)o1 yields IC50 of > 500 nM

Query Nc1ccc(-c2ccoc2)cc1NC(=O)c1cnc(N2CCNCC2)s1 yields IC50 of < 10 nM

Query COc1ccc(Cn2c(=O)n(Cc3ccc(-c4nnc(C(F)F)o4)cn3)c(=O)c3ccccc32)cc1 yields IC50 of > 10000 nM

Query O=C(NO)c1ccc(CNC(=O)c2ccc(C3(c4ccc(F)cc4)CCCO3)cc2)cc1 (centres unmarked) yields IC50 of 50 to 200 nM

Query CN1CCC(c2ccc3c(c2)C(=O)N(Cc2ccc(-c4nnc(C(F)F)o4)cn2)C(=O)C3(C)C)CC1 yields IC50 of > 10000 nM

Query CN1C[C@@H]2C[C@H]1CN2c1c(N(Cc2ncc(-c3nnc(C(F)F)o3)cc2F)c2ccccc2)c(=O)c1=O yields IC50 of > 10000 nM
